Record form. Attribute: IC50. Fill in for each entry.
target: IDO1 (Homo sapiens, UniProt P14902); test: IDO1 Cellular Assay in HeLa Cells Stimulated with IFNγ; assay type: cell-based; details: about 48 hours, read-out: Hela IC50
Sequence (P14902 whole entry): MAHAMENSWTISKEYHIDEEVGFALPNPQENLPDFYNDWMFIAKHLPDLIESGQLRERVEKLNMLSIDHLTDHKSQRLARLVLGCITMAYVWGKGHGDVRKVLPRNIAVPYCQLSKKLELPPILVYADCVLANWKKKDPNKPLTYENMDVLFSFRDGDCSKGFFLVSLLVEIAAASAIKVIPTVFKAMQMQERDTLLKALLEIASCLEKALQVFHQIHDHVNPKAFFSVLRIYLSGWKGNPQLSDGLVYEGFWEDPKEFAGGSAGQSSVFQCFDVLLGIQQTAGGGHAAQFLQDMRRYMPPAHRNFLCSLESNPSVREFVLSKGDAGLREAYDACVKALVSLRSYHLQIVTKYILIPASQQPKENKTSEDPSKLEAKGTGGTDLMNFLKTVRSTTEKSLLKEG
Respond numerically; units are nM and should not be typed.

Exam item: Requested read-out: IC50. Entry: CC(C)CC(=O)NCc1ccc2c(c1)CCCN2C(=O)c1cccc(Cl)c1
Marked response: 702

Exam item: Requested read-out: IC50. Entry: Cc1n[nH]c(C(=O)N2CCCc3cc(C(C)C(=O)Nc4ccc(F)cc4)ccc32)n1 (stereo not shown)
Marked response: 38.4

Exam item: Requested read-out: IC50. Entry: CC(C(=O)Nc1ccc(F)cc1)c1ccc2c(n1)CCCN2C(=O)C1CCCCO1 (single isomer, unassigned) [Example 160]
Marked response: 8.2

Exam item: Requested read-out: IC50. Entry: CC(C)NC(=O)N1CCCc2nc([C@@H](C)C(=O)Nc3ccc(F)cc3)ccc21
Marked response: 24.6

---

Record form. Attribute: IC50. Fill in for each entry.
target: IDO1 (Homo sapiens, UniProt P14902); experiment: IDO1 Cellular Assay in HeLa Cells Stimulated with IFNγ; type: cell-based; conditions: about 48 hours, read-out: Hela IC50
Respond numerically; units are nM and should not be typed.

Exam item: Requested read-out: IC50. Entry: O=C(Nc1ccc(F)cc1)C1(c2ccc3c(n2)CCCN3c2ccnc(C(F)(F)F)n2)COC1
Marked response: 1.6

Exam item: Requested read-out: IC50. Entry: N#Cc1cccc(C(=O)N2CCCc3cc(C4(C(=O)Nc5ccc(F)cn5)CCC4)ccc32)c1
Marked response: 4.9

Exam item: Requested read-out: IC50. Entry: CC(C(=O)Nc1ccc(F)cc1)c1ccc2c(c1)CCCN2C(=O)C1(C(F)(F)F)CC1 (stereo not shown)
Marked response: 7.2

Exam item: Requested read-out: IC50. Entry: O=C(c1cc(C(F)(F)F)n[nH]1)N1CCCc2cc(C3(C(=O)Nc4ccc(F)cc4)CCC3)ccc21
Marked response: 51.4

---

biological target: IDO1 (Homo sapiens, UniProt P14902); assay: IDO1 Cellular Assay in HeLa Cells Stimulated with IFNγ; type: cell-based; conditions: about 48 hours, read-out: Hela IC50
Criterion: IC50 strictly less than 6 nM. Met: class 1. Not met: class 0.

Exam item: Is IC50 strictly under 6 nM for the entry CC(C(=O)Nc1ccc(F)cc1)c1ccc2c(n1)CCCN2C(=O)[C@@H]1CCCO1 (single isomer, unassigned) [Example 164] ?
Marked response: class 1

Exam item: Is IC50 strictly under 6 nM for the entry O=C(c1cccc(Cl)c1)N1CCCc2nc(C3(C(=O)Nc4ccc(F)cc4)COC3)ccc21 [Example 267] ?
Marked response: class 1

Exam item: Is IC50 strictly under 6 nM for the entry Cc1noc(C(=O)N2CCCc3cc(C(C)C(=O)Nc4ccc(F)cc4)ccc32)n1 (stereo not drawn) [Example 43] ?
Marked response: class 1

Exam item: Is IC50 strictly under 6 nM for the entry CCn1ccc(N2CCCc3cc(C4(C(=O)Nc5ccc(F)cn5)CCC4)ccc32)n1 [Example 232] ?
Marked response: class 1

Exam item: Is IC50 strictly under 6 nM for the entry CC(C(=O)Nc1ccc(F)cc1)c1ccc2c(n1)CCCN2C(=O)C1CCOCC1 (stereo not drawn) [Example 167] ?
Marked response: class 1

Exam item: Is IC50 strictly under 6 nM for the entry COC(C(=O)Nc1ccc(F)cn1)c1ccc2c(c1)CCCN2C(=O)C1CC1 (stereo not drawn) [Example 155] ?
Marked response: class 0

Exam item: Is IC50 strictly under 6 nM for the entry O=C([C@H]1CCCCO1)N1CCCc2cc(C3(C(=O)Nc4ccc(F)cc4)CCC3)ccc21 (single isomer, unassigned) [Example 106] ?
Marked response: class 1

Exam item: Is IC50 strictly under 6 nM for the entry C[C@H](C(=O)Nc1ccc(F)cc1)c1ccc2c(c1)CCCN2C(=O)[C@H]1CCCCO1 (single isomer, unassigned) [Example 87] ?
Marked response: class 1

Exam item: Is IC50 strictly under 6 nM for the entry CC(NC(=O)c1ccc(Cl)cc1)c1ccc2c(n1)CCCN2C(=O)C1CC1 (single isomer, unassigned) [Example 126] ?
Marked response: class 0

Exam item: Is IC50 strictly under 6 nM for the entry C[C@@H](NC(=O)c1ccc(F)cc1)c1ccc2c(n1)CCCN2C(=O)C1CC1(F)F (stereo partly drawn) [Example 133] ?
Marked response: class 0

Exam item: Is IC50 strictly under 6 nM for the entry CC(NC(=O)c1ccc(F)cc1)c1ccc2c(n1)C(F)(F)CCN2C(=O)C1CC1 (single isomer, unassigned) [Example 195] ?
Marked response: class 0

Exam item: Is IC50 strictly under 6 nM for the entry C[C@H](C(=O)Nc1ccc(F)cc1)c1ccc2c(c1)CCCN2C(=O)CC1CC1 [Example 82] ?
Marked response: class 0

Exam item: Is IC50 strictly under 6 nM for the entry COCC(=O)N1CCCc2cc(C(C)C(=O)Nc3ccc(F)cc3)ccc21 (stereo not drawn) [Example 59] ?
Marked response: class 0

Exam item: Is IC50 strictly under 6 nM for the entry C[C@@H](NC(=O)c1ccc(F)cn1)c1ccc2c(c1)CCCN2C(=O)C1(F)CC1 (single isomer, unassigned) [Example 33] ?
Marked response: class 0

Exam item: Is IC50 strictly under 6 nM for the entry CC(NC(=O)c1ccc(F)cc1)c1ccc2c(c1)CCCN2C(CO)c1cccc(Cl)c1 (single isomer, unassigned) [Example 93] ?
Marked response: class 1

---

Target: IDO1 (Homo sapiens)
Assay: IDO1 Cellular Assay in HeLa Cells Stimulated with IFNγ
Assay type: cell-based
Settings: about 48 hours, read-out: Hela IC50
Experimental: Biological Assays IDO1 Cellular Assay in HeLa Cells Stimulated with IFNγ HeLa cells were cultured in complete HeLa culture medium (90% EMEM, 10% heat-inactivated fetal bovine serum) and expanded to about 1×10^9 cells. […] Frozen HeLa cells were thawed and transferred into HeLa assay medium (99% complete HeLa culture medium, 1% Pen/Strep) with 20 mL medium/vial of cells. […] The cells were then counted and adjusted to a density of 2×10^5 cells/mL in HeLa assay medium. […]
Readout label: IC50 (nM)
Respond numerically; units are nM and should not be typed.

Exam item: Please provide the recorded IC50 for Cc1nccc(N2CCCc3nc(C(C)(C)C(=O)Nc4ccc(Cl)c(F)c4)ccc32)n1 , tested on IDO1 (Homo sapiens).
Marked response: 5.7

Exam item: Please provide the recorded IC50 for O=C(NC1(c2ccc3c(n2)CCCN3C(=O)C2CCOCC2)CC1)c1ccc(F)cc1 , tested on IDO1 (Homo sapiens).
Marked response: 16.1

Exam item: Please provide the recorded IC50 for CC(NC(=O)c1ccc(F)cc1)c1ccc2c(n1)CCCN2C(=O)C1(C)CCCCO1 (stereo in doubt) [Example 139] , tested on IDO1 (Homo sapiens).
Marked response: 348

Exam item: Please provide the recorded IC50 for COC(=O)N1CCCc2nc(C3(C(=O)Nc4ccc(Cl)cc4)CCC3)ccc21 , tested on IDO1 (Homo sapiens).
Marked response: 5.1

Exam item: Please provide the recorded IC50 for Cc1nccc(N2CCCc3nc(C4(NC(=O)c5ccc(F)cc5)CCC4)ccc32)n1 , tested on IDO1 (Homo sapiens).
Marked response: 1.68

Exam item: Please provide the recorded IC50 for C[C@@H](C(=O)Nc1ccc(F)cn1)c1ccc2c(c1)CCCN2C(=O)C1CC1 (single isomer, unassigned) , tested on IDO1 (Homo sapiens).
Marked response: 124

Exam item: Please provide the recorded IC50 for CC(NC(=O)c1ccc(F)cc1)c1ccc2c(n1)CCCN2C(=O)c1cc(C(F)F)ccn1 (centres unmarked) , tested on IDO1 (Homo sapiens).
Marked response: 7.3

Exam item: Please provide the recorded IC50 for Cc1ccc(C(=O)NCc2ccc3c(c2)CCCN3C(=O)CC(C)C)cc1 , tested on IDO1 (Homo sapiens).
Marked response: 77.9

---

target: IDO1 (Homo sapiens); assay: IDO1 Cellular Assay in HeLa Cells Stimulated with IFNγ; format: cell-based; settings: about 48 hours, read-out: Hela IC50
Readout label: IC50
Dear colleague, please send the value followed by its unit.

Exam item: Please provide the recorded IC50 for O=C(NC1(c2ccc3c(n2)CCCN3c2ccccn2)CC1)c1ccc(F)cc1 [Example 247] , tested on IDO1 (Homo sapiens).
Marked response: 13.9 nM

Exam item: Please provide the recorded IC50 for COC(C(=O)Nc1ccc(F)cn1)c1ccc2c(c1)CCCN2C(=O)C1CC1 (single isomer, unassigned) [Example 156] , tested on IDO1 (Homo sapiens).
Marked response: 794 nM

Exam item: Please provide the recorded IC50 for CC(C(=O)Nc1ccc(F)cc1)c1ccc2c(c1)CCCN2C(=O)C1CC1 (stereo not shown) [Example 36] , tested on IDO1 (Homo sapiens).
Marked response: 5.8 nM

Exam item: Please provide the recorded IC50 for CC(NC(=O)c1ccc(F)cc1)c1ccc2c(c1)CCCN2C(CO)c1cccc(Cl)c1 (single isomer, unassigned) [Example 92] , tested on IDO1 (Homo sapiens).
Marked response: 6 nM
